# test.details: recombinant barcode read abundance after kanamycin selection (control-corrected) (log10(CPM+1)); higher = more efficient recombination; sequences stand for … in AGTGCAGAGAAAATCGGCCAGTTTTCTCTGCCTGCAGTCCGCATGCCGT…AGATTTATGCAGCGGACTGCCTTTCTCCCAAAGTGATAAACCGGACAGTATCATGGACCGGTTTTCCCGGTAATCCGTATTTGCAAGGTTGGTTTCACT; site = the 11-nt target
Quick rule for you: recombinant barcode read abundance (log10) at 0.05 or higher means satisfied, lower means not satisfied.

Use these answered entries as a reference point.
Input line: Threshold query (recombinant barcode read abundance (log10) >= 0.05) on CTACCCTCTTGGGTTCTAACCTGTTGCAT (site CTACCCTCTAT)
Output line: satisfied

Input line: Threshold query (recombinant barcode read abundance (log10) >= 0.05) on GAGGTAACTTGGGTTCTAACCTGTTGCCT (site GAAGTAACTAG)
Output line: satisfied

Input line: Threshold query (recombinant barcode read abundance (log10) >= 0.05) on CTGATCCCTTGGGTTCTAACCTGTTGCGG (site CTGATCCCTCC)
Output line: satisfied

More entries:
Input line: Threshold query (recombinant barcode read abundance (log10) >= 0.05) on GGCTTCCCTTGGGTTCTAACCTGTTGCCT (site GGCCTCCCTAG)
Output line: satisfied

Input line: Threshold query (recombinant barcode read abundance (log10) >= 0.05) on TTAGTACCTTGGGTTCTAACCTGTTGCCT (site TTAGTGCCTAG)
Output line: satisfied

Input line: Threshold query (recombinant barcode read abundance (log10) >= 0.05) on CAGGATGCTTGGGTTCTAACCTGTTGCCT (site CAAGATGCTAG)
Output line: satisfied

Input line: Threshold query (recombinant barcode read abundance (log10) >= 0.05) on AGGAGCCCTTGGGTTCTAACCTGTTGCTG (site AGGAGCCCTTA)
Output line: satisfied

Input line: Threshold query (recombinant barcode read abundance (log10) >= 0.05) on AGCTTAGCTTGGGTTCTAACCTGTTGCCG (site AGCTTAGCTGG)
Output line: not satisfied

----------
# test.details: recombinant UMI read abundance after kanamycin selection (control-corrected) (log10(CPM+1)); higher = more efficient recombination; extreme values may be limits of the assay; sequences stand for … in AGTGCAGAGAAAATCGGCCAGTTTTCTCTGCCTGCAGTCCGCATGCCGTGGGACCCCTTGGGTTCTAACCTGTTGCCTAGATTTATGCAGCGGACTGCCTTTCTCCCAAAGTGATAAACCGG…AGGTTGGTTTCACT; site = the 11-nt donor
Quick rule for you: recombinant UMI read abundance (log10) at 0.01 or higher means 1, lower means 0.

Input line: Threshold query (recombinant UMI read abundance (log10) >= 0.01) on CAAGGTGCATGGACCGGTTTTCCCGGTAATCCGTATTTGAT (site CAAGGTGCTAT)
Output line: 1

Input line: Threshold query (recombinant UMI read abundance (log10) >= 0.01) on ATACGAACATGGACCGGTTTTCCCGGTAATCCGTATTTGTC (site ATACGAACTGA)
Output line: 1

Input line: Threshold query (recombinant UMI read abundance (log10) >= 0.01) on CAAGCCACATGGACCGGTTTTCCCGGTAATCCGTATTTGGG (site CAAGGCACTCC)
Output line: 0

Input line: Threshold query (recombinant UMI read abundance (log10) >= 0.01) on AGGTTTCCATGGACCGGTTTTCCCGGTAATCCGTATTTGTG (site AGGTTTCCTCA)
Output line: 1

More entries:
Input line: Threshold query (recombinant UMI read abundance (log10) >= 0.01) on TTGACAACATGGACCGGTTTTCCCGGTAATCCGTATTTGAC (site TTGACAACTGT)
Output line: 1

Input line: Threshold query (recombinant UMI read abundance (log10) >= 0.01) on TAGCTTCCATGGACCGGTTTTCCCGGTAATCCGTATTTGGG (site TAGCTTCCTCC)
Output line: 1

Input line: Threshold query (recombinant UMI read abundance (log10) >= 0.01) on TGCTTGACATGGACCGGTTTTCCCGGTAATCCGTATTTGCT (site TTCTTGACTAG)
Output line: 0

Input line: Threshold query (recombinant UMI read abundance (log10) >= 0.01) on GTTCGAGCATGGACCGGTTTTCCCGGTAATCCGTATTTGCT (site GTTCGAGCTCG)
Output line: 1

Input line: Threshold query (recombinant UMI read abundance (log10) >= 0.01) on GTACCCACATGGACCGGTTTTCCCGGTAATCCGTATTTGTC (site GTACCCACTGA)
Output line: 1

Input line: Threshold query (recombinant UMI read abundance (log10) >= 0.01) on CAATTCCCATGGACCGGTTTTCCCGGTAATCCGTATTTGCG (site CAATTCCCTTG)
Output line: 1

Input line: Threshold query (recombinant UMI read abundance (log10) >= 0.01) on AACCGTCCATGGACCGGTTTTCCCGGTAATCCGTATTTGAC (site AACCGTCCTGT)
Output line: 1

Input line: Threshold query (recombinant UMI read abundance (log10) >= 0.01) on CATCTGTCATGGACCGGTTTTCCCGGTAATCCGTATTTGGG (site CATCTGTCTCC)
Output line: 1

Input line: Threshold query (recombinant UMI read abundance (log10) >= 0.01) on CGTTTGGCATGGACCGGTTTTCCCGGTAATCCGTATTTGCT (site CGTATGGCTAG)
Output line: 0

Input line: Threshold query (recombinant UMI read abundance (log10) >= 0.01) on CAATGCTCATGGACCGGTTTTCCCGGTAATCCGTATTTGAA (site AAATGCTCTTT)
Output line: 1

Input line: Threshold query (recombinant UMI read abundance (log10) >= 0.01) on ATAGTATCATGGACCGGTTTTCCCGGTAATCCGTATTTGCA (site ACAGTATCTTG)
Output line: 1

Input line: Threshold query (recombinant UMI read abundance (log10) >= 0.01) on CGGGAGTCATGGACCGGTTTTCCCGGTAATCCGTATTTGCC (site CAGGAGTCTGG)
Output line: 1

Input line: Threshold query (recombinant UMI read abundance (log10) >= 0.01) on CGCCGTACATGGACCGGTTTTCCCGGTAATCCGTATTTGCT (site CTCCGTACTAG)
Output line: 0

Input line: Threshold query (recombinant UMI read abundance (log10) >= 0.01) on CAATCGACATGGACCGGTTTTCCCGGTAATCCGTATTTGGG (site CAGTCGACTCC)
Output line: 0

Input line: Threshold query (recombinant UMI read abundance (log10) >= 0.01) on ATAGAGACATGGACCGGTTTTCCCGGTAATCCGTATTTGGT (site ATAGAGACTAC)
Output line: 1

Input line: Threshold query (recombinant UMI read abundance (log10) >= 0.01) on ATAAGGCCATGGACCGGTTTTCCCGGTAATCCGTATTTGAA (site ATAAGGCCTGT)
Output line: 0

Input line: Threshold query (recombinant UMI read abundance (log10) >= 0.01) on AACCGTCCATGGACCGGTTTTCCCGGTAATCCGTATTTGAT (site AACCGTCCTAA)
Output line: 1

Input line: Threshold query (recombinant UMI read abundance (log10) >= 0.01) on GCCGCGCCATGGACCGGTTTTCCCGGTAATCCGTATTTGTA (site GCCACGCCTTA)
Output line: 0

Input line: Threshold query (recombinant UMI read abundance (log10) >= 0.01) on AACCGTCCATGGACCGGTTTTCCCGGTAATCCGTATTTGAG (site AACCGTCCTTT)
Output line: 0

----------
# test.details: recombinant UMI read abundance after kanamycin selection (control-corrected) (log10(CPM+1)); higher = more efficient recombination; extreme values may be limits of the assay; sequences stand for … in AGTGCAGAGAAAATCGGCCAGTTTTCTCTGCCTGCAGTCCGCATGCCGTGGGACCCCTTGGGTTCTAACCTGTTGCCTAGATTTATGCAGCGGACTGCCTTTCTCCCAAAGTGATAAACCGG…AGGTTGGTTTCACT; site = the 11-nt donor
Quick rule for you: recombinant UMI read abundance (log10) at 0.01 or higher means t, lower means f.

Use these answered entries as a reference point.
Input line: Threshold query (recombinant UMI read abundance (log10) >= 0.01) on CCGGAAACATGGACCGGTTTTCCCGGTAATCCGTATTTGCA (site CTGGAAACTTG)
Output line: f

Input line: Threshold query (recombinant UMI read abundance (log10) >= 0.01) on AGCCTCGCATGGACCGGTTTTCCCGGTAATCCGTATTTGTT (site AGCCTTGCTAA)
Output line: t

Input line: Threshold query (recombinant UMI read abundance (log10) >= 0.01) on CGGGATCCATGGACCGGTTTTCCCGGTAATCCGTATTTGTT (site CGGGATCCTAA)
Output line: t

More entries:
Input line: Threshold query (recombinant UMI read abundance (log10) >= 0.01) on GGGAAGACATGGACCGGTTTTCCCGGTAATCCGTATTTGCA (site CGGAAGACTTG)
Output line: f

Input line: Threshold query (recombinant UMI read abundance (log10) >= 0.01) on TAACCCGCATGGACCGGTTTTCCCGGTAATCCGTATTTGTG (site TAACCCGCTCA)
Output line: f

Input line: Threshold query (recombinant UMI read abundance (log10) >= 0.01) on CCCCGTACATGGACCGGTTTTCCCGGTAATCCGTATTTGCT (site CACCGTACTAG)
Output line: f
